experiment: RP-HPLC retention to evaluate the hydrophobicity of lipopeptides; assay type: physicochemical; details: chromatographic, Luna C18(2) 3.0 × 100 mm, 5.0 µm, linear 20–80% acetonitrile in water over 10 min, 0.1% formic acid, 0.5 mL/min, UV 214 nm, used to evaluate hydrophobicity
Where a SMILES comes first, the peptide text is derived from it. Bridges are numbered along the chain shown (N, C = ends). Roman numbers before positions name the chains, in order. The star is where a group is joined. Palmitoyl = CCCCCCCCCCCCCCCC(=O)*; Myristoyl = CCCCCCCCCCCCCC(=O)*; Lauroyl = CCCCCCCCCCCC(=O)*
Label scheme for % ACN at which the peptide was eluted: lower than 40% is n, 40% and above is y.

Ask | Check this compound for % ACN at which the peptide was eluted at or above 40%: CCCCCCCCCCCC(=O)N[C@@H](CCCCN)C(=O)N[C@@H](CCCCN)C(=O)N[C@@H](CSSC[C@H](NC(=O)[C@H](CCCCN)NC(=O)[C@H](CCCCN)NC(=O)CCCCCCCCCCC)C(N)=O)C(N)=O [Lipopeptide 1, C12-KKC-NH2] (I: Lauroyl-Lys-Lys-Cys-NH2 / II: Lauroyl-Lys-Lys-Cys-NH2; disulfide I:3-II:3)
Reply | n

Ask | hey, is % ACN at which the peptide was eluted for this one >= 40%? CCCCCCCCCCCCCCCC(=O)N[C@@H](CCCCN)C(=O)N[C@@H](CCCNC(=N)N)C(N)=O [Lipopeptide 8, C16-KR-NH2] (Palmitoyl-Lys-Arg-NH2)
Reply | y

Ask | Form field: % ACN at which the peptide was eluted at least 40%? Entry: CCCCCCCCCCCCCC(=O)N[C@@H](CCCCN)C(=O)N[C@@H](CCCCN)C(=O)N[C@@H](CSSC[C@H](NC(=O)[C@H](CCCCN)NC(=O)[C@H](CCCCN)NC(=O)CCCCCCCCCCCCC)C(N)=O)C(N)=O [Lipopeptide 3, C14-KKC-NH2] (I: Myristoyl-Lys-Lys-Cys-NH2 / II: Myristoyl-Lys-Lys-Cys-NH2; disulfide I:3-II:3)
Reply | y

Ask | Does CCCCCCCCCCCC(=O)N[C@@H](CCCCN)C(=O)N[C@@H](CCCNC(=N)N)C(N)=O [Lipopeptide 2, C12-KR-NH2] (Lauroyl-Lys-Arg-NH2) have a reported % ACN at which the peptide was eluted of at least 40%?
Reply | n

Ask | State whether the measured % ACN at which the peptide was eluted reaches 40%, counting equality as reaching it, for CCCCCCCCCCCCCCCC(=O)N[C@@H](CCCCN)C(=O)N[C@@H](CCCCN)C(=O)N[C@@H](CCCCN)C(N)=O [Lipopeptide 7, C16-KKK-NH2]
Reply | n

Ask | Does the compound CCCCCCCCCCCCCCCC(=O)N[C@@H](CCCCN)C(=O)N[C@@H](CCCCN)C(=O)N[C@@H](CSSC[C@H](NC(=O)[C@H](CCCCN)NC(=O)[C@H](CCCCN)NC(=O)CCCCCCCCCCCCCCC)C(N)=O)C(N)=O [Lipopeptide 6, C16-KKC-NH2] (I: Palmitoyl-Lys-Lys-Cys-NH2 / II: Palmitoyl-Lys-Lys-Cys-NH2; disulfide I:3-II:3) have recorded % ACN at which the peptide was eluted that is 40% or more?
Reply | y

Ask | Hi, just wondering whether CCCCCCCCCCCCCCCC(=O)N[C@@H](CCCCN)C(=O)NCC(=O)N[C@@H](CCCCN)C(N)=O [Lipopeptide 5, C16-KGK-NH2] (Palmitoyl-Lys-Gly-Lys-NH2) shows % ACN at which the peptide was eluted of 40% or higher.
Reply | y

* * *

test system: Enterococcus faecalis ATCC 29212; assay type: cell-based; conditions: ATCC 29212, 18 h
Where a SMILES comes first, the peptide text is derived from it. Bridges are numbered along the chain shown (N, C = ends). Roman numbers before positions name the chains, in order. The star is where a group is joined. Palmitoyl = CCCCCCCCCCCCCCCC(=O)*; Myristoyl = CCCCCCCCCCCCCC(=O)*; Lauroyl = CCCCCCCCCCCC(=O)*
reported.endpoint: MIC E. faecalis (µg/mL)
Quick reminder: number only, in µg/mL, skip the unit.

Ask | Find MIC E. faecalis (Enterococcus faecalis ATCC 29212) for the entry CCCCCCCCCCCC(=O)N[C@@H](CCCCN)C(=O)N[C@@H](CCCCN)C(=O)N[C@@H](CSSC[C@H](NC(=O)[C@H](CCCCN)NC(=O)[C@H](CCCCN)NC(=O)CCCCCCCCCCC)C(N)=O)C(N)=O [Lipopeptide 1, C12-KKC-NH2] (I: Lauroyl-Lys-Lys-Cys-NH2 / II: Lauroyl-Lys-Lys-Cys-NH2; disulfide I:3-II:3)
Reply | 4

Ask | Could you share what MIC E. faecalis was measured for CCCCCCCCCCCC(=O)N[C@@H](CCCCN)C(=O)N[C@@H](CCCNC(=N)N)C(N)=O [Lipopeptide 2, C12-KR-NH2] (Lauroyl-Lys-Arg-NH2) , tested on Enterococcus faecalis ATCC 29212?
Reply | 64

Ask | Which MIC E. faecalis is reported with Enterococcus faecalis ATCC 29212 for this entry: CCCCCCCCCCCCCCCC(=O)N[C@@H](CCCCN)C(=O)N[C@@H](CCCNC(=N)N)C(N)=O [Lipopeptide 8, C16-KR-NH2] (Palmitoyl-Lys-Arg-NH2) ?
Reply | 64

Ask | Lookup: MIC E. faecalis / Enterococcus faecalis ATCC 29212 / CCCCCCCCCCCCCC(=O)N[C@@H](CCCCN)C(=O)N[C@@H](CCCNC(=N)N)C(N)=O [Lipopeptide 4, C14-KR-NH2] (Myristoyl-Lys-Arg-NH2)
Reply | 32

Ask | Item CCCCCCCCCCCCCCCC(=O)N[C@@H](CCCCN)C(=O)NCC(=O)N[C@@H](CCCCN)C(N)=O [Lipopeptide 5, C16-KGK-NH2] (Palmitoyl-Lys-Gly-Lys-NH2) with Enterococcus faecalis ATCC 29212 - MIC E. faecalis?
Reply | 32

Ask | Under Enterococcus faecalis ATCC 29212: MIC E. faecalis value of CCCCCCCCCCCCCCCC(=O)N[C@@H](CCCCN)C(=O)N[C@@H](CCCCN)C(=O)N[C@@H](CCCCN)C(N)=O [Lipopeptide 7, C16-KKK-NH2] ?
Reply | 16

Ask | // lookup MIC E. faecalis | system=Enterococcus faecalis ATCC 29212 | key= CCCCCCCCCCCCCC(=O)N[C@@H](CCCCN)C(=O)N[C@@H](CCCCN)C(=O)N[C@@H](CSSC[C@H](NC(=O)[C@H](CCCCN)NC(=O)[C@H](CCCCN)NC(=O)CCCCCCCCCCCCC)C(N)=O)C(N)=O [Lipopeptide 3, C14-KKC-NH2] (I: Myristoyl-Lys-Lys-Cys-NH2 / II: Myristoyl-Lys-Lys-Cys-NH2; disulfide I:3-II:3)
Reply | 16

Ask | Value wanted: MIC E. faecalis (Enterococcus faecalis ATCC 29212) of entry CCCCCCCCCCCCCCCC(=O)N[C@@H](CCCCN)C(=O)N[C@@H](CCCCN)C(=O)N[C@@H](CSSC[C@H](NC(=O)[C@H](CCCCN)NC(=O)[C@H](CCCCN)NC(=O)CCCCCCCCCCCCCCC)C(N)=O)C(N)=O [Lipopeptide 6, C16-KKC-NH2] (I: Palmitoyl-Lys-Lys-Cys-NH2 / II: Palmitoyl-Lys-Lys-Cys-NH2; disulfide I:3-II:3)
Reply | 256

* * *

System: Proteus mirabilis PCM 543
Experiment: MBFIC assay (biofilm formation inhibition, resazurin)
Format: cell-based
Conditions: contact lenses (CL, Etafilcon A hydrogel) in 24-well plates, ca. 5 × 10^8 CFU/mL in MHB II, 37 °C, 18 h, visual, triplicate
Experimental: To determine the inhibitory effect of antimicrobials on the formation of biofilm on hydrophobic surfaces, the bacterial suspensions of strains (initial inoculum of ca. 5 × 10^8 CFU/mL in MHB II medium supplemented with antimicrobials) were cultured on 96-well PS at 37 °C for 18 h under aerobic conditions. […] Resazurin (final concentration per sample = 0.005%) was applied as a cell viability reagent for reading the results. […]
Where a SMILES comes first, the peptide text is derived from it. Bridges are numbered along the chain shown (N, C = ends). Roman numbers before positions name the chains, in order. The star is where a group is joined. Palmitoyl = CCCCCCCCCCCCCCCC(=O)*; Myristoyl = CCCCCCCCCCCCCC(=O)*
For each of the molecules below, state its MBFIC P. mirabilis, CL.

Ask | Request the reported MBFIC P. mirabilis, CL associated with CCCCCCCCCCCCCCCC(=O)N[C@@H](CCCCN)C(=O)N[C@@H](CCCNC(=N)N)C(N)=O [Lipopeptide 8, C16-KR-NH2] (Palmitoyl-Lys-Arg-NH2)
Reply | 512/512 μg/mL

Ask | Requested field: MBFIC P. mirabilis, CL. Item: CCCCCCCCCCCCCC(=O)N[C@@H](CCCCN)C(=O)N[C@@H](CCCCN)C(=O)N[C@@H](CSSC[C@H](NC(=O)[C@H](CCCCN)NC(=O)[C@H](CCCCN)NC(=O)CCCCCCCCCCCCC)C(N)=O)C(N)=O [Lipopeptide 3, C14-KKC-NH2] (I: Myristoyl-Lys-Lys-Cys-NH2 / II: Myristoyl-Lys-Lys-Cys-NH2; disulfide I:3-II:3)
Reply | 512/512 μg/mL

Ask | Quick check: MBFIC P. mirabilis, CL of CCCCCCCCCCCCCCCC(=O)N[C@@H](CCCCN)C(=O)N[C@@H](CCCCN)C(=O)N[C@@H](CCCCN)C(N)=O [Lipopeptide 7, C16-KKK-NH2] ?
Reply | 256 µg/mL

Ask | I'd like to know its MBFIC P. mirabilis, CL. The molecule in question is CCCCCCCCCCCCCCCC(=O)N[C@@H](CCCCN)C(=O)NCC(=O)N[C@@H](CCCCN)C(N)=O [Lipopeptide 5, C16-KGK-NH2] (Palmitoyl-Lys-Gly-Lys-NH2)
Reply | >512/512 μg/mL
